- assay.comment: Plasma pharmacokinetics of emodepside, single ascending dose (SAD) and food effect study
- Assay type: in vivo, human
- assay.setup: human, in vivo, po, 10 mg, SAD, single oral 10 mg LSF fasting; plasma, HPLC-MS/MS; mean
measurement.label: AUC(0-t) (ng·h/mL)
Write the number in ng·h/mL without appending the unit.

Query: GET /values?readout=AUC(0-t)&item= CC(C)C[C@H]1C(=O)O[C@H](Cc2ccc(N3CCOCC3)cc2)C(=O)N(C)[C@@H](CC(C)C)C(=O)O[C@H](C)C(=O)N(C)[C@@H](CC(C)C)C(=O)O[C@H](Cc2ccc(N3CCOCC3)cc2)C(=O)N(C)[C@@H](CC(C)C)C(=O)O[C@H](C)C(=O)N1C [emodepside]
Reply: 3070
